Assign MIC to each entry below.
- Test system: Staphylococcus aureus
- Test summary: Antibacterial activity against Staphylococcus aureus NCTC 4163 after 24 hrs
- Assay type: functional, organism-based
- Experimental setup: NCTC 4163, 24 h
Express it in µM; write the number only.

Report measured MIC; entry is `N#C/C(=C\c1ccc([N+](=O)[O-])s1)c1nc2ccccc2[nH]1` 6.4

Report measured MIC; entry is `N#C/C(=C\c1ccc([N+](=O)[O-])s1)c1nc2ccccc2o1` 210

Report measured MIC; entry is `N#C/C(=C\c1ccc([N+](=O)[O-])s1)c1nc2cccnc2[nH]1` 6.4

Report measured MIC; entry is `N#C/C(=C\c1ccc([N+](=O)[O-])o1)c1nc2ccccc2o1` 111

Report measured MIC; entry is `N#C/C(=C\c1ccc([N+](=O)[O-])s1)c1nc2ccccc2s1` 12
